Where do these numbers come from? They come from patent US6309679A.

Give Pectinesterase % Rate Difference for every item shown.
- System: Pectinesterase (EC 3.1.1.11)
- Measurement Notes: Pectinesterase/p-Nitrophenyl acetate reaction gas run (spectrophotometric, 400 nm)
- Type: biochemical, Orange Peel
- Assay Setup: 25° C.; maximum effect, percent change compared to air
Give bare numbers, in %.

1. [Xe] [Xe, xenon]	2.0
2. [Kr] [Kr, krypton]	29.4
3. [Ne] [Ne, neon]	0.0

Now take the following compound into account.
*Q* Sample [Ar] [Ar, argon] — what was its Pectinesterase % Rate Difference?
*A* 17.7
